The measurements presented in this section are drawn from DBAASP.

# Escherichia coli B: MIC values follow

compound | MIC
CC[C@H](C)[C@H](NC(=O)[C@H](CO)NC(=O)[C@H](CC(C)C)NC(=O)[C@H](Cc1ccccc1)NC(=O)CN)C(=O)N[C@@H](CC(C)C)C(=O)N[C@@H](CCCCN)C(=O)N[C@@H](CCCCN)C(=O)N[C@H](C(=O)N[C@@H](CC(C)C)C(=O)N1CCC[C@H]1C(=O)N[C@@H](CCCCN)C(=O)N[C@H](C(=O)N[C@@H](CCSC)C(=O)N[C@@H](C)C(=O)N[C@@H](Cc1cnc[nH]1)C(=O)N[C@@H](CCSC)C(=O)N[C@@H](CCCCN)C(N)=O)C(C)C)C(C)C [GFLSILKKVLPKVMAHMK] | 1 µM
CC[C@H](C)[C@H](NC(=O)CN)C(=O)N[C@@H](CCSC)C(=O)N[C@@H](CO)C(=O)N[C@@H](CO)C(=O)N[C@@H](CC(C)C)C(=O)N[C@@H](CCSC)C(=O)N[C@@H](CCCCN)C(=O)N[C@@H](CCCCN)C(=O)N[C@@H](CC(C)C)C(=O)N[C@@H](C)C(=O)N[C@@H](CCCCN)C(=O)N[C@H](C(=O)N[C@H](C(=O)N[C@@H](C)C(=O)N[C@@H](CCCCN)C(N)=O)[C@@H](C)CC)[C@@H](C)CC [GIMSSLMKKLAKIIAK] | 3.7 µM
CC[C@H](C)[C@H](NC(=O)[C@H](CC(C)C)NC(=O)[C@H](Cc1cnc[nH]1)NC(=O)CNC(=O)[C@H](CC(C)C)NC(=O)[C@@H](NC(=O)[C@H](CCCCN)NC(=O)[C@H](CCCCN)NC(=O)[C@H](Cc1c[nH]c2ccccc12)NC(=O)[C@H](CCSC)NC(=O)CN)[C@@H](C)CC)C(=O)N[C@@H](CCCN=C(N)N)C(N)=O [GMWKKILGHLIR] | 1.8 µM
